# measured-target: HLA-B*27:03
# experiment-description: IEDB peptide-MHC binding, purified MHC/competitive/fluorescence; filed as Kd, often an IC50 or EC50 that approximates it; bounds were set here for any values at or beyond the usual limits of such assays
# experimental-setup: source organism: Escherichia coli E22
pKd: −log10 of the molar value.
result-type: pKd

Request the reported pKd associated with YQTYVSPGA
≤ 4.70

* * *

# measured-target: HLA-B*51:01
# experiment-description: IEDB peptide-MHC binding, purified MHC/competitive/fluorescence; filed as Kd, often an IC50 or EC50 that approximates it; bounds were set here for any values at or beyond the usual limits of such assays
# experimental-setup: source organism: Orthomarburgvirus marburgense
pKd: −log10 of the molar value.
result-type: pKd

Request the reported pKd associated with GIADFIIFK
≤ 4.70

* * *

# measured-target: HLA-B*57:01
# experiment-description: IEDB peptide-MHC binding, purified MHC/direct/fluorescence; filed as Kd, often an IC50 or EC50 that approximates it; bounds were set here for any values at or beyond the usual limits of such assays
# experimental-setup: source organism: Camelpox virus M-96
Listed sequences paired with reported pKd
# pKd = -log10(concentration in molar units)

KSISSIFGY | 7.43

Switching to the query record.
Param readout= pKd; system= HLA-B*57:01; entry= KSTSPTRTW ; returns value.
7.15

* * *

# measured-target: HLA-B*51:01
# experiment-description: IEDB peptide-MHC binding, purified MHC/competitive/fluorescence; filed as Kd, often an IC50 or EC50 that approximates it; bounds were set here for any values at or beyond the usual limits of such assays
# experimental-setup: source organism: Escherichia coli O139:H28 str. E24377A
result-type: Kd

Param readout= Kd; system= HLA-B*51:01; entry= LPRDASQIT ; returns value.
≥ 20 µM

* * *

# measured-target: HLA-A*33:01
# experiment-description: IEDB peptide-MHC binding, purified MHC/competitive/radioactivity; filed as Kd, often an IC50 or EC50 that approximates it; bounds were set here for any values at or beyond the usual limits of such assays
# experimental-setup: source organism: Mammarenavirus brazilense
pKd: −log10 of the molar value.
result-type: pKd

Request the reported pKd associated with KCFGNTALAK
≤ 4.15

* * *

# measured-target: HLA-B*08:01
# experiment-description: IEDB peptide-MHC binding, purified MHC/direct/fluorescence; filed as Kd, often an IC50 or EC50 that approximates it; bounds were set here for any values at or beyond the usual limits of such assays
# experimental-setup: source organism: Salmonella enterica subsp. enterica serovar Typhimurium str. LT2
pKd: −log10 of the molar value.
result-type: pKd

Param readout= pKd; system= HLA-B*08:01; entry= FPASHMATY ; returns value.
≤ 4.70

* * *

# measured-target: HLA-A*02:03
# experiment-description: IEDB peptide-MHC binding, purified MHC/competitive/fluorescence; filed as Kd, often an IC50 or EC50 that approximates it; bounds were set here for any values at or beyond the usual limits of such assays
# experimental-setup: source organism: Salmonella enterica subsp. enterica serovar Typhimurium str. LT2
pKd: −log10 of the molar value.
result-type: pKd

Request the reported pKd associated with FPASHMATY
≤ 4.70

* * *

# measured-target: HLA-B*54:01
# experiment-description: IEDB peptide-MHC binding, purified MHC/competitive/radioactivity; filed as Kd, often an IC50 or EC50 that approximates it; bounds were set here for any values at or beyond the usual limits of such assays
# experimental-setup: source organism: Triticum aestivum
result-type: pKd
# pKd = -log10(concentration in molar units)

Param readout= pKd; system= HLA-B*54:01; entry= QPYLQLQPF ; returns value.
4.96

Reference for the values: the Immune Epitope Database (IEDB)
